TESTED_TARGET: Mitogen-activated protein kinase kinase kinase 5 (Homo sapiens) (UniProt Q99683)
Sequence (Q99683 whole entry, looked up): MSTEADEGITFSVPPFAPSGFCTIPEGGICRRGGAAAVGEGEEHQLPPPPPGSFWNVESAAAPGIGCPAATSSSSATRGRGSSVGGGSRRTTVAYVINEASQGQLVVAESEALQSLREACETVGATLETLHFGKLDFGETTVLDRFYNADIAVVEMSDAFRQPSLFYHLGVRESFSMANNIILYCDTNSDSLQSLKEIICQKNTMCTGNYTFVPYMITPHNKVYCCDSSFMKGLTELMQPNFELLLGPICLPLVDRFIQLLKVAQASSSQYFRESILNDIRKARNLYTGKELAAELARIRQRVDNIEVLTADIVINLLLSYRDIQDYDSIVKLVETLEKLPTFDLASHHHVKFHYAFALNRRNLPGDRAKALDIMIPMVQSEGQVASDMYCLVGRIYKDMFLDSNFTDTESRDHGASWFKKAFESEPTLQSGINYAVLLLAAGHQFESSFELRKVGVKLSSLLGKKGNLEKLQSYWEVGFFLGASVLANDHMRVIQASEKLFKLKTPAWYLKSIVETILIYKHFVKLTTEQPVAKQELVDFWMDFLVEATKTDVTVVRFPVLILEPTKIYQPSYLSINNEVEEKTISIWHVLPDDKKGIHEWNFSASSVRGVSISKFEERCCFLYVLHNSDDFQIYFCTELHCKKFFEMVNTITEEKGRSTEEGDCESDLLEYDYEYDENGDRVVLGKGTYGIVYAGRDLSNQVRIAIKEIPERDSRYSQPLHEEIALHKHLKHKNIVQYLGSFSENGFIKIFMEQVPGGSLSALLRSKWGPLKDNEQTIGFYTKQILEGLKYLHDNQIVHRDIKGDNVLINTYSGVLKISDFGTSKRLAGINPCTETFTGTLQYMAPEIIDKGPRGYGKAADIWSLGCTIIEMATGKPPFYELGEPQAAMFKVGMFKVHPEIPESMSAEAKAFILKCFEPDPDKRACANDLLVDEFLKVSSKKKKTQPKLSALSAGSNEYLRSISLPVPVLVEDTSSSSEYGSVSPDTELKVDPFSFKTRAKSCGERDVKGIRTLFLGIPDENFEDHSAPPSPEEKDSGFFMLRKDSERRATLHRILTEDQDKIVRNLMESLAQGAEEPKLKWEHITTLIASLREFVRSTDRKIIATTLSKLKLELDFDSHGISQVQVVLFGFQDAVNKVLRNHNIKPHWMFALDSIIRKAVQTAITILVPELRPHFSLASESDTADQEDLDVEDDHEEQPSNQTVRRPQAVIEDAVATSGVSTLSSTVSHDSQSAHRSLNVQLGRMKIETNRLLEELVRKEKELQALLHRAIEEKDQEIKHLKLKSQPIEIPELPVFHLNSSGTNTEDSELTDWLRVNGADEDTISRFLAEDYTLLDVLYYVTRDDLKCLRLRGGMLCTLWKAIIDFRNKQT
PROTOCOL_SUMMARY: MAP3K5 (ASK1) binders by thermal shift, biophysical, DSF, SYPRO orange, recombinant protein (AID 515)
EXPERIMENTAL_PARAMETERS: at 10 µM, buffer 10 mM HEPES, pH 7.5, NaCl 150 mM, with 50 µM L-Arg/L-Glu (1:1), stronger effect = higher value
Assign Tm shift to each entry below.

Field: example entries. Status: answers known.
Recorded Tm shift for CC(O)(O)C1(O)C[C@@H]2O[C@@]1(C)n1c3ccccc3c3c4c(c5c6ccccc6n2c5c31)C(=O)NC4 (stereo not given in full) , please?
14.1 Celsius

Entry to check: CCN(CC)CCNC(=O)c1c(C)[nH]c(/C=C2\C(=O)Nc3ccc(Cl)cc32)c1C
6.43 Celsius

Entry to check: CC(C)(C)c1nc2c3cc[nH]c(=O)c3c3cc(F)ccc3c2[nH]1
8.26 Celsius

Entry to check: NC1=N/C(=C2/CCNC(=O)c3[nH]c(Br)cc32)C(=O)N1
12.5 Celsius

Entry to check: NC(=O)Nc1sc(-c2ccccc2)cc1C(N)=O
5.94 Celsius

Entry to check: O=C1NCc2c1c1c3ccccc3[nH]c1c1[nH]c3ccccc3c21
8.53 Celsius

Entry to check: Cc1cc(C=C2C(=O)C=CC2=O)cc(C)c1O
3.1 Celsius

Entry to check: O=c1c(O)c(-c2ccc(O)c(O)c2)oc2cc(O)ccc12
3.96 Celsius

Each of the following entries comes with a recorded value; kindly state Tm shift for each.
1. CC1N=C2SC=CN2C(=O)C1CCN1CCC(=C(c2ccccc2)c2ccc(F)cc2)CC1 (stereo not given)
2. NC1=N/C(=C2\CCNC(=O)c3[nH]ccc32)C(=O)N1
3. O=Nc1c(-c2c(O)[nH]c3cc(Br)ccc23)[nH]c2ccccc12
4. O=C1Nc2ccccc2/C1=C/c1ccc[nH]1

6.07 Celsius
4.65 Celsius
8.7 Celsius
5.01 Celsius

Each of the following entries comes with a recorded value; kindly state Tm shift for each.
1. O=C1c2ccccc2-c2n[nH]c3cccc1c23
2. COc1ccc2c(c1)/C(=C/c1cnc[nH]1)C(=O)N2
3. O=C1NC(=O)c2c1c1c3ccccc3n3c1c1c2c2ccccc2n1[C@@H]1CCC3O1

8.63 Celsius
5.19 Celsius
6.97 Celsius
